Data origin, for the record: patent US20260151494A1

Below, each entry is listed with its recorded RLU.
target-entity: T1, human CD71 extracellular domain (CD71-ECD) (human, UniProt P02786 89-760)
T1 construct: also called hCD71; human CD71-ECD
T1 sequence (P02786 89-760): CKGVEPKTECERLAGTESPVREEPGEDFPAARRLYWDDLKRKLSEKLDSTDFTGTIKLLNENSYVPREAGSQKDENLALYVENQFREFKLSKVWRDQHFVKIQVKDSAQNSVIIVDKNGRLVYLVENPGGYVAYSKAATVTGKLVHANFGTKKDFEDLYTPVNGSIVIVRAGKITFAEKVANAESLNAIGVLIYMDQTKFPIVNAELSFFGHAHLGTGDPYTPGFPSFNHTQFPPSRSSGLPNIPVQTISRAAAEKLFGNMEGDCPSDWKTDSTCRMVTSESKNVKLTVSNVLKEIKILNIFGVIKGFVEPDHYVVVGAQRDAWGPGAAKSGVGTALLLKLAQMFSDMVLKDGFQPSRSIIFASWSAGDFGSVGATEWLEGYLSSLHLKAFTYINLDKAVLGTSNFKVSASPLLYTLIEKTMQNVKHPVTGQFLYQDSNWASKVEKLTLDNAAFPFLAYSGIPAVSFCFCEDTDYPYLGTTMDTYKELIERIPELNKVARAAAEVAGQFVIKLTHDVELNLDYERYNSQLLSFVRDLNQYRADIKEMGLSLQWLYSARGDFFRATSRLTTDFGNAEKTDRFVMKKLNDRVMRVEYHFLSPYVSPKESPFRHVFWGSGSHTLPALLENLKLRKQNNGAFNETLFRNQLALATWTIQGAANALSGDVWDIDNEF
assay-name: primary ELISA; further: test concentration or dose not given here

# binder, RLU / RLU
rows = [
    ("CD71-binding FN3 domain SEQ ID NO: 295 (designed binder) MSLPAPKNLVVSRVTEDSARLSWTAPDAAFDSFFIGYLEPQPPGEAIDLYVPGSERSYDLTGLKPGTEYNVTIQGVKGGFPSEPLVATFTT", "6.2e+06"),
    ("CD71-binding FN3 domain SEQ ID NO: 258 (designed binder) MSLPAPKNLVVSRVTEDSARLSWTAPDAAFDSFFIGYLEPQPPGEAIVLGVPGSERSYDLTGLKPGTEYNVTIQGVKGGFPSDPLVASFTT", "4.77e+06"),
    ("CD71-binding FN3 domain SEQ ID NO: 234 (designed binder) MSLPAPKNLVVSRVTEDSARLSWTAPDAAFDSFFIGYLEPQPPGEAIALYVPGSERSYDLTGLKPGTEYNVTIQGVKGGFPSEPLVAHFTT", "6.42e+06"),
    ("CD71-binding FN3 domain SEQ ID NO: 286 (designed binder) MSLPAPKNLVVSRVTEDSARLSWTAPDAAFDSFEIVYAEPVRFGEAIVLTVPGSERSYDLTGLKPGTEYWVQIGGVKGGEWSSPLSAIFTT", "2.66e+06"),
    ("CD71-binding FN3 domain SEQ ID NO: 308 (designed binder) MSLPAPKNLVVSRVTEDSARMSWTTPDAAFDSFEIGYFENLYLGEAIVLTVPGSERSYDLTGLKPGTEYWVQIGGVKGGNWSAPLSAIFTT", "3.55e+06"),
]
